Molecular target: Csp-3 (Homo sapiens)
Experiment: Fluorescence enzyme assay, IC50 determination
Assay type: biochemical
Conditions: recombinant enzyme, 30 minutes preincubation at room temperature, AMC substrate
measured-quantity: IC50 (nM)
Answers are plain numbers, in nM.

query: Provide measured IC50 value, entry: CC(C)C(NC(=O)COc1cccc2ccccc12)C(=O)NC(CC(=O)NS(C)(=O)=O)C(=O)COc1c(F)c(F)cc(F)c1F (stereo not shown) [Compound 1]
result: 2

* * *

Molecular target: Csp-1 (Homo sapiens, UniProt P29466)
Sequence (P29466 120-297 limits assumed): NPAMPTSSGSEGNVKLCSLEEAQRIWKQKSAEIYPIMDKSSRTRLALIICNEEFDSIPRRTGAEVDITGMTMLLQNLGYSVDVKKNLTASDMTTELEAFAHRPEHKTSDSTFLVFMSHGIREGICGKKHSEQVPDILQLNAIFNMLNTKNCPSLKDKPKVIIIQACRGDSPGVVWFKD
Experiment: Continuous assay for dissociation constant Ki of irreversible inhibitors
Details: continuous assay for sixty minutes, reaction initiated by adding enzyme to substrate-inhibitor mixture
measured-quantity: pKi
Answers are plain numbers, as −log10 of the molar value.

query: Provide measured pKi value, entry: CC(C)C(NC(=O)COc1cccc2ccccc12)C(=O)NC(CC(=O)NS(C)(=O)=O)C(=O)COc1c(F)c(F)cc(F)c1F (stereo not shown) [Compound 1]
result: 6.70

* * *

Target: Csp-8 (UniProt Q14790 217-374; Q14790 385-479, limits assumed)
Sequence (Q14790 217-374 limits assumed, form in doubt, chain 1 of 2): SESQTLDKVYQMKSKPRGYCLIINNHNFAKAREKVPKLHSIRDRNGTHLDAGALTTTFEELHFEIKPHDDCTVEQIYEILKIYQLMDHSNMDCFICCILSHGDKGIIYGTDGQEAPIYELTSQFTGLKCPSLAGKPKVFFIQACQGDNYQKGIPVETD
Sequence (Q14790 385-479 limits assumed, form in doubt, chain 2 of 2): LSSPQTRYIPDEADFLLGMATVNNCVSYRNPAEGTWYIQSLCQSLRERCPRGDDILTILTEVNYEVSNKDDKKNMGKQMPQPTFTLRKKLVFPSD
Test: continuous fluorogenic enzyme assay, 60 min, fit of AMC product formation to irreversible competitive inhibition model
The star is where a group is joined. Cbz = O=C(OCc1ccccc1)*; CH2F = FC*
measured-quantity: pKi
Give bare numbers, as −log10 of the molar value.

query: Provide measured pKi value, entry: Cbz-Val-Ala-Asp-CH2F
result: 7.74

* * *

Biological target: Csp-6 (Homo sapiens)
Sequence (P55212 24-179 limits assumed): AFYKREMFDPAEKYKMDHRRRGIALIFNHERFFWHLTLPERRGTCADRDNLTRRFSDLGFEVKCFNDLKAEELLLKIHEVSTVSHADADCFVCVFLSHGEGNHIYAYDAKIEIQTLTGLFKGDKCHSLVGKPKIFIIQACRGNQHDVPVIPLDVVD
Experiment: Continuous assay for dissociation constant Ki of irreversible inhibitors
Settings: continuous assay for sixty minutes, reaction initiated by adding enzyme to substrate-inhibitor mixture
measured-quantity: pKi
One number for each entry, as −log10 of the molar value.

query: Quote pKi with test system Csp-6 (Homo sapiens) for CC(C)C(NC(=O)COc1cccc2ccccc12)C(=O)NC(CC(=O)NS(C)(=O)=O)C(=O)COc1c(F)c(F)cc(F)c1F (stereo not shown)
result: 6.40

* * *

Target: Csp-1 (UniProt P29466 120-297; P29466 317-404, limits assumed)
Sequence (looked up) 1: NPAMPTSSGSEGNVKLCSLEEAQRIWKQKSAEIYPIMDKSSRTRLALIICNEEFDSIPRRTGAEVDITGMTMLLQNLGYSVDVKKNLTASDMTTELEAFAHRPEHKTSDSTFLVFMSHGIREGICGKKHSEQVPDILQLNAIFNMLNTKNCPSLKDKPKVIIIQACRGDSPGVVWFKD
Sequence (looked up) 2: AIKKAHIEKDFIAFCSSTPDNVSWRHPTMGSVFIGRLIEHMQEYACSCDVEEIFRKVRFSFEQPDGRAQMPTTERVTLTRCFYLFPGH
Assay: continuous fluorogenic enzyme assay, 60 min, fit of AMC product formation to irreversible competitive inhibition model
The star is where a group is joined. Cbz = O=C(OCc1ccccc1)*; CH2F = FC*
measured-quantity: Ki (nM)
Answers are plain numbers, in nM.

query: Provide measured Ki value, entry: Cbz-Val-Ala-Asp-CH2F
result: 15

* * *

Molecular target: Csp-3 (UniProt P42574 29-277, limits assumed)
Sequence (looked up): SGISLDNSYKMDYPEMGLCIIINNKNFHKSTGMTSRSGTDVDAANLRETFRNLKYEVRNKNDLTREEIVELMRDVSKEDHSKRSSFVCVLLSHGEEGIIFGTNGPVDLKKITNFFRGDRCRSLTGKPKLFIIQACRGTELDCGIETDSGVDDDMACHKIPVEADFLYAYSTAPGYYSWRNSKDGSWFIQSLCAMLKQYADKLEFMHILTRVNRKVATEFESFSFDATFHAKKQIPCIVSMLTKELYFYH
Test: continuous fluorogenic enzyme assay, 60 min, fit of AMC product formation to irreversible competitive inhibition model
The star is where a group is joined. Cbz = O=C(OCc1ccccc1)*; CH2F = FC*
measured-quantity: Ki (nM)
Answers are plain numbers, in nM.

query: Provide measured Ki value, entry: Cbz-Val-Ala-Asp-CH2F
result: 820

* * *

Biological target: Csp-8 (Homo sapiens, UniProt Q14790)
Sequence (Q14790 217-374 limits assumed): as the sequence (Q14790 217-374 limits assumed, form in doubt, chain 1 of 2) above
Test: Continuous assay for dissociation constant Ki of irreversible inhibitors
Settings: continuous assay for sixty minutes, reaction initiated by adding enzyme to substrate-inhibitor mixture
measured-quantity: Ki (µM)
Numbers only, in µM.

query: Provide measured Ki value, entry: CC(C)C(NC(=O)COc1cccc2ccccc12)C(=O)NC(CC(=O)NS(C)(=O)=O)C(=O)COc1c(F)c(F)cc(F)c1F (stereo not shown) [Compound 1]
result: 0.6
